Molecular target: PI3Kδ (Homo sapiens (Human), UniProt O00329)
Sequence (O00329 whole entry, canonical isoform): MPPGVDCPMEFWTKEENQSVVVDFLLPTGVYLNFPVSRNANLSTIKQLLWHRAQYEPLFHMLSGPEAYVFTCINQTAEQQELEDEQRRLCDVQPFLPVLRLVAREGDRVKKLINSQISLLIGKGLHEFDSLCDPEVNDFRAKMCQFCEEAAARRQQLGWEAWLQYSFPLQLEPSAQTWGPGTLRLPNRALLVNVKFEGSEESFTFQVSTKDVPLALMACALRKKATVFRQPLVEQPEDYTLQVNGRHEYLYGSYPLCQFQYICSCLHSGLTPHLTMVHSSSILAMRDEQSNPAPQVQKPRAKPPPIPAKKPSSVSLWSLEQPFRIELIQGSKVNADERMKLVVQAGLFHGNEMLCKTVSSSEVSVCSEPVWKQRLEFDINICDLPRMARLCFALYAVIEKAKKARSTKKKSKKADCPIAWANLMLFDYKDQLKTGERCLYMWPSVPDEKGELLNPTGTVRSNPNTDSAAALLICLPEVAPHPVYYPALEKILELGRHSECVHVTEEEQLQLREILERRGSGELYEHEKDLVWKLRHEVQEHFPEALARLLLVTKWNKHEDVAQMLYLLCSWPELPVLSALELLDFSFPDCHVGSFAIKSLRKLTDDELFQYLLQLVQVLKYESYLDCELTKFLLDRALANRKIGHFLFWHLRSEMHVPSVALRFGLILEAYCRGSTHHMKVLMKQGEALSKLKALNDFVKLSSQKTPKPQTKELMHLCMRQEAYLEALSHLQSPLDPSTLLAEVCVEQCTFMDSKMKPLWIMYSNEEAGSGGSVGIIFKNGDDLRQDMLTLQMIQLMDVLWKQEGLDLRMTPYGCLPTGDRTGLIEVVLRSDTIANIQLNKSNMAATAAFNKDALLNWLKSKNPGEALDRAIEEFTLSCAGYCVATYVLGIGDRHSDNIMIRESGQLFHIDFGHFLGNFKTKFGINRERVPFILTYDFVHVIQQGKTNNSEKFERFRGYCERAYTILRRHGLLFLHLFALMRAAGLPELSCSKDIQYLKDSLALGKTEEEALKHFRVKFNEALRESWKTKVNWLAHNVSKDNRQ
Sequence (P27986 whole entry partner, canonical isoform): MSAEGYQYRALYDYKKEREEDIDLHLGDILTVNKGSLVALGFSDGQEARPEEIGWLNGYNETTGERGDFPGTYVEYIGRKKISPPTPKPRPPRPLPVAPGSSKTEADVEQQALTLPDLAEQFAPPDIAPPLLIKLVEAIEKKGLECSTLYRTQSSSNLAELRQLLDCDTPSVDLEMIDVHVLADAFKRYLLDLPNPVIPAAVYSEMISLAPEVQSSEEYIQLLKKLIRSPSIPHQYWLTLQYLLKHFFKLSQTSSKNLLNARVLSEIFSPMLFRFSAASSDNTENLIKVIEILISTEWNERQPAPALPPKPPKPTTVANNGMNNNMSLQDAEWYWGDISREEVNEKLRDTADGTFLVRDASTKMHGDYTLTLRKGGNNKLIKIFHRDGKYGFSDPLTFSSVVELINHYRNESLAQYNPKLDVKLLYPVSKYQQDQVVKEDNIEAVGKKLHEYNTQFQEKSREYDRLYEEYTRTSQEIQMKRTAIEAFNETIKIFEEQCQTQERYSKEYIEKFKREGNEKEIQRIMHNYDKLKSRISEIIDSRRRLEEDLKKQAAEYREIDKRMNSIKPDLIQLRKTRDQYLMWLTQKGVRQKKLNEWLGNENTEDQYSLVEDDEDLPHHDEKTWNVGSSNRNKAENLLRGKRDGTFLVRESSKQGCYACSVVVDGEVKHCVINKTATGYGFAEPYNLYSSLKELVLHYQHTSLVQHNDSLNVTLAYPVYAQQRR
Assay: TR-FRET enzymatic assay of PI3K isoforms (PI3Kδ)
Details: 2×Km ATP, 2 μM PIP2, incubated for 30 minutes at 25° C., read-out: δ IC50
Catalogue of IC50 readings, one per entry.

COMPOUND	EXPERIMENTAL_SYSTEM	IC50 [nM]
N#Cc1c(N)nc(N)nc1N[C@H](c1nc2cccc(Cl)c2c(=O)n1-c1cncc(C(N)=O)c1)C1CC1 [Compound 164]	PI3Kδ (Homo sapiens (Human), UniProt O00329)	1
C[C@H](Nc1ncnc(N)c1C#N)c1nc2cccc(Cl)c2c(=O)n1-c1cccc(NC(=O)Nc2nnn[nH]2)c1 [Compound 114]	PI3Kδ (Homo sapiens (Human), UniProt O00329)	10
CCC[C@H](Nc1nc(N)nc(N)c1Cl)c1nc2c(Cl)ccc(Cl)c2c(=O)n1-c1cccc(C(N)=O)c1 [Compound 21]	PI3Kδ (Homo sapiens (Human), UniProt O00329)	19
CCNC(=O)Nc1cccc(-n2c([C@H](C)Nc3ncnc(N)c3C#N)nc3c(Cl)ccc(Cl)c3c2=O)c1 [Compound 48]	PI3Kδ (Homo sapiens (Human), UniProt O00329)	3
N#Cc1c(N)nc(N)nc1N[C@H](c1nc2c(C#N)cc(F)cc2c(=O)n1-c1cccc(C(N)=O)c1)C1CC1 [Compound 32]	PI3Kδ (Homo sapiens (Human), UniProt O00329)	4
NC(=O)c1cccc(-n2c([C@@H](Nc3nc(N)nc(N)c3Cl)C3CC3)nc3cccc(Cl)c3c2=O)c1 [Compound 10]	PI3Kδ (Homo sapiens (Human), UniProt O00329)	1
CCNC(=O)Nc1cccc(-n2c([C@H](C)N(C)c3ncnc(N)c3C#N)nc3cccc(Cl)c3c2=O)c1 [Compound 57]	PI3Kδ (Homo sapiens (Human), UniProt O00329)	610

----------
Catalogue of pIC50 readings, one per entry.
Target: PI3Kγ (Homo sapiens (Human), UniProt P48736)
Sequence (P48736 whole entry, canonical isoform): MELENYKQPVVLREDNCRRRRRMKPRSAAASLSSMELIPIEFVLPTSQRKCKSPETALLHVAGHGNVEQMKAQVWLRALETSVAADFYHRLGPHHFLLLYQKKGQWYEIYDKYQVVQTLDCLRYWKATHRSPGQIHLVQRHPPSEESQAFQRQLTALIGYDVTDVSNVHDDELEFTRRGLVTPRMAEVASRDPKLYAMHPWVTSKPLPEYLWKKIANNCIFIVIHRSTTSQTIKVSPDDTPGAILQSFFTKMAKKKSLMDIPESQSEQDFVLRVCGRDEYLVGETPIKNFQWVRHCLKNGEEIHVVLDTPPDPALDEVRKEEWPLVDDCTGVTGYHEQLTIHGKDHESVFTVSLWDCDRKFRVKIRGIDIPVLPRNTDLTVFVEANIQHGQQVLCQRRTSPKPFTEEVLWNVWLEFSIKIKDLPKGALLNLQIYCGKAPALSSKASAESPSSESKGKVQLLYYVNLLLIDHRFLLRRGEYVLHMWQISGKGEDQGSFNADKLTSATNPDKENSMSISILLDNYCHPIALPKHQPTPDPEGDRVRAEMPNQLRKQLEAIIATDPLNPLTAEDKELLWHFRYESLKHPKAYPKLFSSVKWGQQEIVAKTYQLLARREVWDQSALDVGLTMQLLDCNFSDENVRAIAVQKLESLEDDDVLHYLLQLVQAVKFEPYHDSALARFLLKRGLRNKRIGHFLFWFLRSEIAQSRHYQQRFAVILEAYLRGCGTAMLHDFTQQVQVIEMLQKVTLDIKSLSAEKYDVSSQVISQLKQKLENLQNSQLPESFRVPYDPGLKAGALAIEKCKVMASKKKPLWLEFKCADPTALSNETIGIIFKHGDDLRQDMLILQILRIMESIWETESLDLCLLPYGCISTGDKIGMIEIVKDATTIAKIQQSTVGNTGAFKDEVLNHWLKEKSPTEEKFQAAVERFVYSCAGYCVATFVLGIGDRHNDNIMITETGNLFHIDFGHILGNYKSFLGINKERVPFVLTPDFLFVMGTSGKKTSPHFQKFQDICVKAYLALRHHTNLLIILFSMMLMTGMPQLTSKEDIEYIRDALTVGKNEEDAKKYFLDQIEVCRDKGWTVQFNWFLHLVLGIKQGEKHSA
Sequence (Q8WYR1 whole entry partner, canonical isoform): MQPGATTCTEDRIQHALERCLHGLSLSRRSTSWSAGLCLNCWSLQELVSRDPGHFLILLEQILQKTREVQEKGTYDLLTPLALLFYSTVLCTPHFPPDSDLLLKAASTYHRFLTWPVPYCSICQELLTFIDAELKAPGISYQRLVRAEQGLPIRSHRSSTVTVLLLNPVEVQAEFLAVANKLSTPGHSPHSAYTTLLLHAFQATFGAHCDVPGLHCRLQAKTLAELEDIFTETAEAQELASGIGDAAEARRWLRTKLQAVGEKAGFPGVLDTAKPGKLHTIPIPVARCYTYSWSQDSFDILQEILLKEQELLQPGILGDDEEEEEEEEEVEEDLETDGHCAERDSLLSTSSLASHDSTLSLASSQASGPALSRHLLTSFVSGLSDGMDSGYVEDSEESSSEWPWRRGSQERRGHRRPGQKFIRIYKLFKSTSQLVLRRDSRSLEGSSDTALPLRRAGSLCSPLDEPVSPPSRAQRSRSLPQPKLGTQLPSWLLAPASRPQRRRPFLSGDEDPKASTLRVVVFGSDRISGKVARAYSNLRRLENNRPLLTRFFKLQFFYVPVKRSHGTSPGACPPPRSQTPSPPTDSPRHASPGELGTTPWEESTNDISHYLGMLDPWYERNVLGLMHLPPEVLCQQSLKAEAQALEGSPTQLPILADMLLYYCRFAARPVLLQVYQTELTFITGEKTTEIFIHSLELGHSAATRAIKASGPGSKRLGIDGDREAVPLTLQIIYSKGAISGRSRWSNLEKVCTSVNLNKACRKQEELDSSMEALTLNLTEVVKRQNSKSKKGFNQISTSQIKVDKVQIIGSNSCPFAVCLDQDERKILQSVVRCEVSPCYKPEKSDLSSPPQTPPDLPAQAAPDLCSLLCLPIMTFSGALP
Experiment: TR-FRET enzymatic assay of PI3K isoforms (PI3Kγ)
Format: biochemical
Conditions: TR-FRET, 2×Km ATP, 2 μM PIP2, PI3Kγ at 2 nM, incubated for 30 minutes at 25° C.; read-out: γ IC50
pIC50: −log10 of the molar value. Counter-ions that a name gives are not always drawn.
MEASUREMENT_KIND: pIC50

COMPOUND	MEASUREMENT_KIND	REPORTED_RELATION	RECORDED_MEASUREMENT
C[C@H](Nc1ncnc(N)c1C#N)c1nc2c(Cl)ccc(Cl)c2c(=O)n1-c1cccc(NC(=O)NCCCO)c1	pIC50	<	5.00
CC[C@H](Nc1nc(N)nc(N)c1Cl)c1nc2c(Cl)ccc(Cl)c2c(=O)n1-c1cccc(C(N)=O)c1	pIC50	<	5.00
N#Cc1c(N)nc(N)nc1N[C@H](c1nc2c(F)ccc(Cl)c2c(=O)n1-c1cccc(C(N)=O)c1)C1CC1	pIC50	=	6.48
C[C@H](Nc1ncnc(N)c1C#N)c1nc2cccc(Cl)c2c(=O)n1-c1cccc(NC(=O)NC(C)(C)C)c1	pIC50	=	5.48
NC(=O)c1cccc(-n2c([C@@H](Nc3nc(N)nc(N)c3Cl)C3CC3)nc3c(Cl)ccc(Cl)c3c2=O)c1	pIC50	=	5.07
NC(=O)c1cc(F)cc(-n2c([C@@H](Nc3ncnc(N)c3Cl)C3CC3)nc3cccc(Cl)c3c2=O)c1	pIC50	<	5.00
Cc1c(C(N)=O)cccc1-n1c([C@H](C)Nc2nc(N)nc(N)c2C#N)nc2cccc(Cl)c2c1=O (single isomer, unassigned) [Compound 5]	pIC50	=	7.09
N#Cc1c(N)ncnc1N1CCC[C@H]1c1nc2cccc(Cl)c2c(=O)n1-c1cccc(NC(=O)NCC(F)(F)F)c1	pIC50	=	5.25
CCNC(=O)Nc1cccc(-n2c([C@H](C)Nc3nc(C)nc(N)n3)nc3cccc(Cl)c3c2=O)c1	pIC50	=	5.43
C[C@H](Nc1nc(N)nc(N)c1C#N)c1nc2c(C#N)cc(F)cc2c(=O)n1-c1cccc(C(N)=O)c1	pIC50	=	5.96
C[C@H](Nc1ncnc(N)c1C#N)c1nc2cccc(Cl)c2c(=O)n1-c1cccc(NC(=O)Nc2ccccc2Cl)c1	pIC50	=	5.85
C[C@H](Nc1nc(N)nc(N)c1Cl)c1nc2c(C#N)cccc2c(=O)n1-c1cccc(C(N)=O)c1	pIC50	<	5.00
C[C@H](Nc1ncnc2[nH]cnc12)c1nc2cccc(Cl)c2c(=O)n1-c1cccc(NC(=O)Nc2c(Cl)cccc2Cl)c1	pIC50	=	6.13
C[C@H](Nc1ncnc(N)c1C#N)c1nc2cccc(Cl)c2c(=O)n1-c1cccc(NC(=O)Nc2cccnc2)c1 [Compound 119, trifluoroacetic acid salt]	pIC50	=	5.85
CCNC(=O)Nc1cccc(-n2c([C@@H](C)Nc3ncnc(N)c3C#N)nc3cccc(Cl)c3c2=O)c1	pIC50	<	5.00
C[C@H](Nc1ncnc(N)c1C#N)c1nc2cccc(Cl)c2c(=O)n1-c1cccc(NC(N)=O)c1	pIC50	=	5.57
NC(=O)c1cccc(-n2c([C@@H](Nc3nc(N)nc(N)c3Cl)C3CC3)nc3c(F)ccc(Cl)c3c2=O)c1	pIC50	=	5.49
Cc1c(C(N)=O)cccc1-n1c([C@H](C)Nc2nc(N)nc(N)c2C#N)nc2cccc(Cl)c2c1=O (single isomer, unassigned) [Compound 6]	pIC50	=	6.21
C[C@H](Nc1nc(N)nc(N)c1Cl)c1nc2c(Cl)cc(F)cc2c(=O)n1-c1cccc(C(N)=O)c1	pIC50	<	5.00
CCC[C@H](Nc1nc(N)nc(N)c1Cl)c1nc2c(Cl)ccc(Cl)c2c(=O)n1-c1cccc(C(N)=O)c1	pIC50	<	5.00
CC[C@H](Nc1nc(N)nc(N)c1C#N)c1nc2c(Cl)ccc(Cl)c2c(=O)n1-c1cccc(C(N)=O)c1	pIC50	=	5.92
CONC(=O)Nc1cccc(-n2c([C@H](C)Nc3ncnc(N)c3C#N)nc3cccc(Cl)c3c2=O)c1	pIC50	=	5.43
C[C@H](Oc1ncnc2scnc12)c1nc2cccc(Cl)c2c(=O)n1-c1cccc(NC(=O)Nc2cc(C(F)(F)F)no2)c1	pIC50	=	6.08
C[C@H](Nc1ncnc(N)c1C#N)c1nc2cccc(Cl)c2c(=O)n1-c1cccc(NC(=O)NC(C)(C)CO)c1	pIC50	=	5.28
COc1ccccc1NC(=O)Nc1cccc(-n2c([C@H](C)Nc3ncnc(N)c3C#N)nc3cccc(Cl)c3c2=O)c1	pIC50	=	5.59
CC(O)CNC(=O)Nc1cccc(-n2c([C@H](C)Nc3ncnc(N)c3C#N)nc3cccc(Cl)c3c2=O)c1 (stereo partly drawn)	pIC50	=	5.25
CCNC(=O)Nc1cc(-n2c([C@H](C)Nc3ncnc(N)c3C#N)nc3cccc(Cl)c3c2=O)ccc1F	pIC50	=	5.31

----------
Catalogue of pIC50 readings, one per entry.
Molecular target: PI3Kβ (Homo sapiens (Human), UniProt P42338)
Sequence (P42338 whole entry, one chain of several, canonical isoform): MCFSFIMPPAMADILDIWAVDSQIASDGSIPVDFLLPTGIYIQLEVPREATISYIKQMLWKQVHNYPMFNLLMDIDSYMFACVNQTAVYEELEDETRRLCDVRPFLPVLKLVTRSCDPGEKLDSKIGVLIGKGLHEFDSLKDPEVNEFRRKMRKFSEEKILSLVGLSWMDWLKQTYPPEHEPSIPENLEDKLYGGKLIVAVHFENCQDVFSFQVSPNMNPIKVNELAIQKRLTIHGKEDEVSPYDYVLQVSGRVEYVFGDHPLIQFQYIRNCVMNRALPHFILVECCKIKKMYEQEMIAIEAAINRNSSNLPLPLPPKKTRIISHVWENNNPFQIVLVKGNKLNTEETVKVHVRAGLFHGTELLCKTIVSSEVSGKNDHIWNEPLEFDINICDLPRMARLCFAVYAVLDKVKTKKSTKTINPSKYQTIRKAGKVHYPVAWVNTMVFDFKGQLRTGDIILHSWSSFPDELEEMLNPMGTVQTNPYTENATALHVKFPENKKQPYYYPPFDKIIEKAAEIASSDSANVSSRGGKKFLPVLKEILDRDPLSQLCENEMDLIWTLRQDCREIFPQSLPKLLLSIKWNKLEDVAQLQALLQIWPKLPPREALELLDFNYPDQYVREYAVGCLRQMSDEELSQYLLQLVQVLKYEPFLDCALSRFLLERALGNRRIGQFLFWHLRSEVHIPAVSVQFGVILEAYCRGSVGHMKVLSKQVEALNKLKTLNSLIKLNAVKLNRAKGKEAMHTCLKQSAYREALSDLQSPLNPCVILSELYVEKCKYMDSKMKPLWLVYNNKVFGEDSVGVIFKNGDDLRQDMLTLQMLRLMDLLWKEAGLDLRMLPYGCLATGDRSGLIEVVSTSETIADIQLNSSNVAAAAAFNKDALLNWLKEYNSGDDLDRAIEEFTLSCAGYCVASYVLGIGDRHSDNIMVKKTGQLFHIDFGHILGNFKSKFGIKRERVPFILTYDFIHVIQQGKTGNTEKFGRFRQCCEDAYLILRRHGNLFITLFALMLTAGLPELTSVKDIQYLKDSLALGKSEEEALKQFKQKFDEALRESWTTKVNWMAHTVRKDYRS
Experiment: TR-FRET enzymatic assay of PI3K isoforms (PI3Kβ)
Conditions: TR-FRET, 2×Km ATP, 2 μM PIP2, incubated for 30 minutes at 25° C.; read-out: β IC50
pIC50: −log10 of the molar value.

SMILES_STRUCTURE	pIC50
CCNC(=O)Nc1cccc(-n2c([C@H](C)Nc3ncnc(N)c3C#N)nc3c(F)ccc(Cl)c3c2=O)c1	8.15
Cc1ccccc1NC(=O)Nc1cccc(-n2c([C@H](C)Nc3ncnc(N)c3C#N)nc3cccc(Cl)c3c2=O)c1	7.80
NC(=O)c1cc(F)cc(-n2c([C@@H](Nc3nc(N)nc(N)c3Cl)C3CC3)nc3cccc(Cl)c3c2=O)c1	7.68
C[C@H](Nc1ncnc(N)c1C#N)c1nc2cccc(Cl)c2c(=O)n1-c1cccc(NC(=O)Nc2ccccc2S(=O)(=O)O)c1	6.92
CCNC(=O)Nc1cccc(-n2c([C@H](COCc3ccccc3)Nc3ncnc(N)c3C#N)nc3cccc(Cl)c3c2=O)c1	7.68
C[C@H](Nc1ncnc(N)c1C#N)c1nc2cccc(Cl)c2c(=O)n1-c1cccc(NC(=O)Nc2ccccc2Cl)c1	9.00
N#Cc1c(N)nc(N)nc1N[C@H](c1nc2c(Cl)cc(F)cc2c(=O)n1-c1cccc(C(N)=O)c1)C1CC1	8.30

----------
Target: PI3Kδ (Homo sapiens (Human))
Experiment: TR-FRET enzymatic assay of PI3K isoforms (PI3Kδ)
Details: 2×Km ATP, 2 μM PIP2, incubated for 30 minutes at 25° C., read-out: δ IC50
Method: The compounds of formula (I) were characterized for their enzymatic activity against the PI3K isoforms. Certain compounds of the present application, including certain compounds of formula (II) and (III) were also characterized for their enzymatic activity against PI3K isoforms. The activities were measured using a time-resolved fluorescence resonance energy transfer (TR-FRET) assay.
Quick rule for you: IC50 under 4 nM gets condition met, anything else gets condition not met.

SMILES_STRUCTURE	EXPERIMENTAL_SYSTEM	CLASS_LABEL
C[C@H](Nc1ncnc(N)c1C#N)c1nc2cccc(Cl)c2c(=O)n1-c1cccc(NC(=O)NC(C)(C)CO)c1	PI3Kδ (Homo sapiens (Human))	condition not met
CCNC(=O)Nc1cccc(-n2c([C@H](C)Nc3ncnc(N)c3C#N)nc3ccc(F)cc3c2=O)c1	PI3Kδ (Homo sapiens (Human))	condition not met
C[C@H](Oc1ncnc2scnc12)c1nc2cccc(Cl)c2c(=O)n1-c1cccc(NC(=O)NC2CCCC2)c1	PI3Kδ (Homo sapiens (Human))	condition not met
C[C@H](Nc1ncnc(N)c1C#N)c1nc2cccc(Cl)c2c(=O)n1-c1cccc(NC(N)=O)c1	PI3Kδ (Homo sapiens (Human))	condition met
NC(=O)c1cccc(-n2c([C@@H](Nc3nc(N)nc(N)c3Cl)C3CC3)nc3c(Cl)ccc(Cl)c3c2=O)c1	PI3Kδ (Homo sapiens (Human))	condition met
C[C@H](Nc1ncnc(N)c1C#N)c1nc2cccc(Cl)c2c(=O)n1-c1cccc(NC(=O)Nc2ccccc2C(F)(F)F)c1	PI3Kδ (Homo sapiens (Human))	condition not met
C[C@H](Nc1nc(N)nc(N)c1Cl)c1nc2cccc(Cl)c2c(=O)n1-c1cccc(C(N)=O)c1	PI3Kδ (Homo sapiens (Human))	condition met
COCCCNC(=O)Nc1cccc(-n2c([C@H](C)Nc3ncnc(N)c3C#N)nc3cccc(Cl)c3c2=O)c1	PI3Kδ (Homo sapiens (Human))	condition not met
C[C@H](Oc1ncnc2scnc12)c1nc2cccc(Cl)c2c(=O)n1-c1cccc(NC(=O)NCC2OCCO2)c1	PI3Kδ (Homo sapiens (Human))	condition not met
CC[C@H](Nc1nc(N)nc(N)c1Cl)c1nc2cccc(C(F)F)c2c(=O)n1-c1cccc(C(N)=O)c1	PI3Kδ (Homo sapiens (Human))	condition met
